Tested on: P388 leukemia ip, CD2F1 mice, survival T/C
protocol-description: NCI In Vivo Anticancer Drug Screen. Data for tumor model P388 Leukemia (intraperitoneal) in CD2F1 (CDF1) mice
condition-parameters: endpoint: median survival time; dose: 12.5 mg/kg/injection; schedule: Q01DX009 (ip); vehicle: saline; higher = longer survival
Toxic doses and inconclusive results are not listed.
measured-quantity: T/C

> print(dat)
                                   compound  reported.measurement
1  Nc1ncnc2c1ncn2C1OC(COP(=O)(O)O)C(O)C1O (stereo not drawn)       99 % of control
2                   CCCCCCCCCC[N+](C)(C)CCO      118 % of control
3                 C[N+](C)(C)CCC(=O)c1ccco1      117 % of control
